- Test system: MS2 coat protein
- Method notes: apparent KD of MS2 coat protein; designed switch direction (-1 OFF switch, 1 ON switch): 1; higher = weaker reporter binding
- Measurement setup: input ligand: none
Listed below: apparent KD of MS2 coat protein values for each entry.
Unit nM implied. Number only.

>>> observed_measurement("GUUACAUGAGGAUCACCCAUGUAUGUGUGGGAGUAAGUGUCUUAGGAUAUCUAGUAUUUAAUUGAAGAGAAGGAAGAUUGUUGU [JMF's solution 67] (Eterna round: R96, puzzle: Same State NG 3)")
108
>>> observed_measurement("UAAUUAAAGCAAGGAUAUCACGUCGAUUAGACGUGAGAAGGUGCUCCUUACAUGAGGAUCACCCAUGUAUAACAUGAAUAAUUA [SSNG1/10-B2] (Eterna round: R96, puzzle: Same State NG 1)")
792
>>> observed_measurement("GUACAUAUUAUAGGAUAUCACGUCGUUUAGACGUGAGAAGGAUAAUCCCACAUGAAUAUUAAUACAUGAGGAUCACCCAUGUAC [SSNG1/18-A3] (Eterna round: R96, puzzle: Same State NG 1)")
63.9
>>> observed_measurement("UAUGAAUAGCAAGGAUAUUGAUAACAUGAGGAUCACCCAUGUAAUUGAUUGAGAAAGAUUAGUUACAAGAAGGUGCAAUUGAUU [JR_SSNG2_Sub034] (Eterna round: R96, puzzle: Same State NG 2)")
311

Now for the sequence whose apparent KD of MS2 coat protein we want.
Request: State its apparent KD of MS2 coat protein on MS2 coat protein: GCUCGAUGAUAGGCCUACAUGAGGAUCACCCAUGUAAGUGGGCAGGAUAUCUAAAUGCAGAAUGUAGAGAAGGGCCCGUCGAGC [SameState NG3 #54] (Eterna round: R96, puzzle: Same State NG 3)
Result: 1460

----------
- System: K4 kissing-loop RNA reporter
- Method notes: apparent KD of K4 kissing-loop reporter; higher = weaker reporter binding
- Measurement setup: Eterna round: R107; input ligand: none
Value type: apparent KD of K4 kissing-loop reporter (nM)
The reply should contain only the number, in nM.

The examples below pair each entry with its known result.
>>> observed_measurement("AAAAGAAAGUCGGCCGCCACUCAACGCAGUGAUGUUGCAAGACAGAAGAGCAGUGAUGUUGCCCAGAGGACCGGGACACAAGGCC [Same State Typtophan B GF 3]")
444
>>> observed_measurement("GGCGGCCGCGCGCAAGCGCGGCCGGCCGAUACCAGCGCGACGGCGCGCCCUUGGCAGCGGCGCCGAGUGAUGUUCGGCCUGCCGU [#2 Same State - Theophylline A Attempt #15 (HarryS)]")
146

Next sequence, please.
Request: GET /values?readout=apparent KD of K4 kissing-loop reporter&item= UGGAGUUGACGAAAAGUCAACUCCUGAGAUACCAGUGACGAAAGUCACCCUUGGCAGCUCACUGCCAGUGAUGUUGGUUUAUAAA [#OpenEnded 2]
Result: 134

----------
- Test system: MS2 coat protein
- Method notes: apparent KD of MS2 coat protein; higher = weaker reporter binding
- Measurement setup: Eterna round: R107; input ligand: theophylline 20 uM
Value type: apparent KD of MS2 coat protein (nM)
Number only, in nM; omit the unit.

// worked examples, apparent KD of MS2 coat protein included
>>> observed_measurement("GGUUACUCUACGGCCGCCACUGAUAAAUAAUAAACCUGUACAUAAACAUGAGGAUCACCCAUGUACAGGACCGGGUAGUGUAACC [Tryptophan B 7]")
41.2
>>> observed_measurement("CACAUGAGGAUCACCCAUGUCUGAACUGAAGGAGCGCUAAACAAGGCAGGUAGGUCGCGGAAUCUUGUGUGCAUAUGCACACGGG [9.S]")
27.4
>>> observed_measurement("AAUACCGGUCCUCGAAGUGAUCCUCAUGAACGAGGACCGGUACGGCCGCCACUCGAUAACAUGAGGAUCACCCAUGUAAUAAUAA [|T'-M'-Trp-Ms2|_Design4]")
93.1
>>> observed_measurement("UGGGUACCGACGGCCGCCACUGAAUAUAGACAUGAGGAUCACCCAUGUAGAGAUCCUAGAAUAAACAGGACCGGGUCUGGUGCUA [Exclusion Tryptophane B GF5]")
239
>>> observed_measurement("GGUGGCGUGACGGAUACCAGCCACCGCCGCAAGGCAACAUGAGGAUCACCCAUGUUGGGUGGCCCUUGGCAGCUGUCGUGCGGCG [#1 Same State - Theophylline B Attempt #22 (HarryS)]")
151

Continue with the next sequence.
Request: What apparent KD of MS2 coat protein appears in the records for this sequence with MS2 coat protein? UAUAAACAGCCUGGUUACUCGUCGCGCUUGCGAGGACCGGUACGGCCGCCACUCGACCCAUCACAUGAGGAUCACCCAUGUCCCA [theeternabot_exclusion_MS2_Trp_A_25]
Result: 45

----------
- System: K4 kissing-loop RNA reporter
- Method notes: apparent KD of K4 kissing-loop reporter; higher = weaker reporter binding
- Measurement setup: Eterna round: R107; input ligand: tryptophan 2.4 mM
# Lookup of reported apparent KD of K4 kissing-loop reporter keyed by entry
Respond with a number, then the unit of measure.

Request: Look up apparent KD of K4 kissing-loop reporter for this sequence: AGACUACCACACUGUCAAUAGACAGUGUACUAGGAUAUGCUGAUAAGCAGAAGGAGUGAUGUUCCUCGGUAGUCAAUAAAAUAAU [FmnAX 13 U28+C67]
Result: 0.276 µM

Request: Same question for AAGUGUGUGGCGGCCGCCACUAGAAUCCAGUGAUGUUGGAGAUAUCAUGUAAAUGAUAUCCAACAUAGGACCGGGCCAUAUAGAA [Same State - Tryptophan B (Freestyle 10)] please.
Result: 0.12 µM

Request: Query UGACUGGAUGGAAGGAGCGCUAAACUCCUAGUGAUGUUAGGGAAAUGAGACAAAGUCUCAAGGCAGGUAGGUCGCCAUCUAGUCU [FiskerMod 16 - Jieux - Same State - Arginine B] next
Result: 0.177 µM

Request: Here is the next sequence: CGAGCGGAGUGAUGUUCCGUGCCAGCAGAUACCAGAUUGAAAGAGAUCCCUUGGCAGCUGCGUCACACCCUUACGUGAUAGGACC [theeternabot_sameState_KL_Theo_A_32]
Result: 0.165 µM

Request: Try this sequence next: GCCAGUGAUGUUGGCGAACCAACGCAUGCAGAGGAUAUUCGUUCUGGAAGAAGGCUGCAGCGUUAUCAAACGCAGUGAUGUUGCG [Same State FMN A GF 26]
Result: 0.129 µM

----------
- Test system: K4 kissing-loop RNA reporter;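 note: bound reporter read as fluorescence of individual clusters on recovered sequencing chips by microscopy, with normalized cluster intensities fitted with a binding model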
- Method notes: apparent KD of K4 kissing-loop reporter; higher = weaker reporter binding
- Measurement setup: Eterna round: R107; input ligand: theophylline 20 uM
Value type: apparent KD of K4 kissing-loop reporter (nM)
Output spec: scalar in nM, unitless text.

Check out these entries, answers already filled in.
>>> observed_measurement("UGAUUUAACUGAAGGAGCGGCAAGAGAGAAGGAAAUAUAGUGAUGUUAUAUAAGAGAGAGAGCCAGGUAGGUCGCAGAGGGAGGA [ExArgB.E]")
178
>>> observed_measurement("GUUAUGGACCUGGAUACCAGCUGGUACUAAGUGGGAGAAUGAAAGUGAUGUUUUCGUGCUAGCCCUUGGCAGCCAGCAACCCGCA [XTheo-B7]")
79.4
>>> observed_measurement("UGUAUGGACUGAAGGAGCGGUAUAUAAACUGAGUGAUGUUCGGCAGAUAAAGGCGCAAGCCACCAGGUAGGUCGCAGUCCAUACU [KL-SSArg B2]")
390
>>> observed_measurement("CACUUACGUAGUGAUGUUACGAUCUCUGAUACCAGACAACUCUAAGUCCCUUGGCAGCAGUCAUUUUGCUUUUAAUUUACUCAAA [JR_ExcTheophyA_Sub014]")
578
>>> observed_measurement("UCUUGCGGCGCAGGAUAUCCGUCUGUCUCCUGCGUCAUUCUGCAGUGAUGUUGCAGGUGACGGAUAGGAGAAGGGCGAACGUACA [Diinonorce]")
117

Let's switch to this sequence now.
Request: Form field: reported apparent KD of K4 kissing-loop reporter of CGUUGUGAUGCUUGUGCUCAUACCGGAGAUACCAGUACCAUCACUUACCCUUGGCAGCUCAGUAAAGACAAGUGAUGUUUGUCAC [theeternabot_sameState_KL_Theo_A_38]
Result: 560

----------
- Tested on: MS2 coat protein
- Method notes: apparent KD of MS2 coat protein; designed switch direction (-1 OFF switch, 1 ON switch): -1; higher = weaker reporter binding
- Measurement setup: Eterna round: R95; input ligand: FMN 200 uM
# cutoff 30 nM applies to apparent KD of MS2 coat protein; >= gives Criterion met, < gives Criterion not met

Please review the following examples before continuing.
>>> label("CACAAGCUUUUUUGAUGCAUUUUAGUUGGUUGCCUUUUUACAUGAGGAUCACCCAUGUUUGUGUAGCUCGAUCUUUU [JR_SV3TOV2_Sub078] (puzzle: Sensor v3, turn-off variant 2)")
"Criterion met"
>>> label("CAUUACUGCAAGCUAUGGGACAUGAGGAUCACCCAUGUUCGUCUUAUUGAUCUAGGUACGCUGACGUACCUAGAUCU [JL-sv1-2.21 Brourd mod] (puzzle: Sensor v3, turn-off variant 1)")
"Criterion not met"
>>> label("UUUUACAAGCCAGAUCCUCACAUGAGGAUCACCCAUGUGCUCGUCUGUUUUUGUACUAUCACGUUUGUGAUAGUGUU [Level Boss var2-09] (puzzle: Sensor v3, turn-off variant 1)")
"Criterion met"
>>> label("AGUACUAUGCGAGCUGACUUGCGUAGUGCAGCAGGUGAAACAUGAGGAUCACCCAUGUCCUCAUUUGCUCGUCUUAU [Mat - Sensor v3 - Turn-off var 2 - D2] (puzzle: Sensor v3, turn-off variant 2)")
"Criterion met"
>>> label("GGUGCUGGCGCGUCGGUGUUGGUGCAAUAAGCUUGUGAAACAUGAGGAUCACCCAUGUCCUCAUAGGCUCGUCUUGU [salish99_TOv2_r2_088] (puzzle: Sensor v3, turn-off variant 2)")
"Criterion not met"

Request: Item GAUACACAUGAGGAUCACCCAUGUGAGGAUAUGCGUACGUUGUCCGUAGGCGACGUGCGCAGAAGGCGCAAAGG [Mat - Mod of JL D97] (puzzle: Exclusion 1) with apparent KD of MS2 coat protein of 30 nM or above?
Result: Criterion met

Request: Item: GCCAGAGCAGGAUAUUCAAUGUAUCACAUGAGGAUCACCCAUGUCCAGCGAAAGCUGGAGGGAGAAGGGCUCUGGC [Fiskers Ex 5 - 17] (puzzle: Exclusion 5)
Result: Criterion met

Request: Lookup GGUCAAGAGCAGAUCCGCGCUGCCAUUGACCGCUCAUUUACAUGAGGAUCACCCAUGUUUUUUGCUCGUCUUACUAC [Inedsoinin] (puzzle: Sensor v3, turn-off variant 2)
Result: Criterion not met

Request: Now consider AAAUACAAGUAAAGAUCCUACAUGAGGAUCACCCAUGUGCUCGUCUUAUAAAGUACUAUCACGAAAGUGAUAGUACA [Sensor 3, v1 - 20] (puzzle: Sensor v3, turn-off variant 1) and answer again.
Result: Criterion met

Request: And for AGUACGAUGCGUGCUGACAUGCGUCGUGCAGCAGGUGAUACAUGAGGAUCACCCAUGUCCUCAUUUGCUCGUCUUGU [Mat - Sensor v3 - Turn-off var 2 - D18] (puzzle: Sensor v3, turn-off variant 2) ?
Result: Criterion met

This collection of values is drawn from the supplement of paper PMC9170038.
